Tested on: Escherichia coli
Assay: Disruption of inner membrane integrity in Escherichia coli MG1655 assessed as induction of […] conversion at 256 ug/ml measured at 10 mins intervals for 1 hr
Assay type: functional, organism-based
Details: K-12 substr. MG1655
The source made the active and inactive calls. The calls are words filed in the database; no cut-off is given here.
The reply should be one of these categories: t (active), f (inactive)

Here's what some known entries look like.
1. N=C(N)NCCCCCCCCN(CCCCCCCCNC(=N)N)C(=O)N(CCCCCCCCNC(=N)N)CCCCCCCCNC(=N)N ... f
2. N=C(N)NCCCCCCCCNCCCCCCCCNC(=N)NCC1CC1 ... f
3. N=C(NCCCCCCCCN(CCCCCCCCNC(=N)NCC1CC1)C(=O)N(CCCCCCCCNC(=N)NCC1CC1)CCCCCCCCNC(=N)NCC1CC1)NCC1CC1 ... f
4. N=C(N)NCCCCCCCCCCN(CCCCCCCCCCNC(=N)NCC1CC1)C(=O)N(CCCCCCCCCCNC(=N)N)CCCCCCCCCCNC(=N)NCC1CC1 ... f
5. N=C(N)NCCCCCCCCN(CCCCCCCCNC(=N)NCC1CC1)C(=O)N(CCCCCCCCNC(=N)N)CCCCCCCCNC(=N)NCC1CC1 ... f

Please find the next compound below.
Task: Please state the recorded outcome for this compound: CCCCCCCCCCCCOS(=O)(=O)[O-].[Na+]
Output: t

----------
Target: Albumin (Homo sapiens)
Sequence (P02768 whole entry): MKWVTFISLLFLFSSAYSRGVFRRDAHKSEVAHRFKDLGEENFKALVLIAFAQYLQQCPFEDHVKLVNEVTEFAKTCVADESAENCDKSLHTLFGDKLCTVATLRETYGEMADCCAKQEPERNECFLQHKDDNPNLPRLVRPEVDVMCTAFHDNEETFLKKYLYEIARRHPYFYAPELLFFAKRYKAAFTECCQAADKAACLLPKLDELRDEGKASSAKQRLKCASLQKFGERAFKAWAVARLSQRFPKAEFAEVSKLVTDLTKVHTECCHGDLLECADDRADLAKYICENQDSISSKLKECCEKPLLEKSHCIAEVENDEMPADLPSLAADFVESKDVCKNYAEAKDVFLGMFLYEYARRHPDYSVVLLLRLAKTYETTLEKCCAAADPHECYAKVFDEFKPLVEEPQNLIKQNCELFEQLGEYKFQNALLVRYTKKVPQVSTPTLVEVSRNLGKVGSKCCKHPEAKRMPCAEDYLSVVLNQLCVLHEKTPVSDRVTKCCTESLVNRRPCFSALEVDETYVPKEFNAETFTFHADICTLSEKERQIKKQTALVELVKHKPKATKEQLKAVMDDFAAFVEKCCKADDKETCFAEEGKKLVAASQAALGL
Assay: Binding affinity to human serum albumin assessed as dissociation constant after 30 mins by fluorescence-based assay
MEASURED_PROPERTY: pKd
# pKd: negative log10 of molar concentration; output just the value

pKd recorded for this compound, N=C(N)NCCCCCCCCN(CCCCCCCCNC(=N)NCC1CC1)C(=O)N(CCCCCCCCNC(=N)N)CCCCCCCCNC(=N)NCC1CC1 , is 4.63

----------
Assay: Binding affinity to AGP (unknown origin) assessed as dissociation constant after 30 mins by fluorescence-based assay
Assay type: ADME, Homo sapiens
MEASURED_PROPERTY: Kd (nM)
Quick reminder: number only, in nM, skip the unit.

Noted for N=C(N)NCCCCCCCCN(CCCCCCCCNC(=N)NCC1CC1)C(=O)N(CCCCCCCCNC(=N)N)CCCCCCCCNC(=N)NCC1CC1 : its Kd reads 110

----------
System: Burkholderia cepacia
Experiment: Antibacterial activity against Burkholderia cepacia isolate SI-R2 after 18 hrs by microdilution broth method
Format: functional
Conditions: isolate SI-R2, 18 h
Measured MIC accompanies every entry in the list below.
Respond with the bare value in µg/mL.

Would you please look over these solved cases?
1. N=C(NCCCCCCCCN(CCCCCCCCNC(=N)NCC1CC1)C(=O)N(CCCCCCCCNC(=N)NCC1CC1)CCCCCCCCNC(=N)NCC1CC1)NCC1CC1 ... 32
2. CCNC(=N)NCCCCCCCCN(CCCCCCCCNC(=N)N)C(=O)N(CCCCCCCCNC(=N)N)CCCCCCCCNC(=N)NCC ... 32
3. N=C(N)NCCCCCCCCN(CCCCCCCCNC(=N)NCC1CC1)C(=O)N(CCCCCCCCNC(=N)N)CCCCCCCCNC(=N)NCC1CC1 ... 16

Value (MIC, Burkholderia cepacia) for record CCNC(=N)NCCCCCCCCN(CCCCCCCCNC(=N)NCC)C(=O)N(CCCCCCCCNC(=N)NCC)CCCCCCCCNC(=N)NCC = 32

Measured on Burkholderia cepacia, N=C(N)NCCCCCCCCN(CCCCCCCCNC(=N)NCc1ccccc1)C(=O)N(CCCCCCCCNC(=N)N)CCCCCCCCNC(=N)NCc1ccccc1 has a documented MIC of 16

MIC on Burkholderia cepacia for CNC(=N)NCCCCCCCCN(CCCCCCCCNC(=N)N)C(=O)N(CCCCCCCCNC(=N)N)CCCCCCCCNC(=N)NC is 32

----------
Test system: Staphylococcus aureus
Assay: Antibacterial activity against Staphylococcus aureus ATCC 25923 after 18 hrs by microdilution broth method
Type: functional
Details: ATCC 25923, 18 h
MEASURED_PROPERTY: MIC
A complete answer gives the number and then names the unit.

1. CCNC(=N)NCCCCCCCCN(CCCCCCCCNC(=N)NCC)C(=O)N(CCCCCCCCNC(=N)NCC)CCCCCCCCNC(=N)NCC ... 0.5 µg/mL

Entry N=C(N)NCCCCCCCCCCN(CCCCCCCCCCNC(=N)NCC1CC1)C(=O)N(CCCCCCCCCCNC(=N)N)CCCCCCCCCCNC(=N)NCC1CC1 — recorded MIC = 8 µg/mL

Lab note: measured MIC of CCCCCCCCCC(=O)N[C@@H](Cc1c[nH]c2ccccc12)C(=O)N[C@H](CC(N)=O)C(=O)N[C@@H](CC(=O)O)C(=O)N[C@@H]1C(=O)NCC(=O)N[C@@H](CCCN)C(=O)N[C@@H](CC(=O)O)C(=O)N[C@H](C)C(=O)N[C@@H](CC(=O)O)C(=O)NCC(=O)N[C@H](CO)C(=O)N[C@@H]([C@H](C)CC(=O)O)C(=O)N[C@@H](CC(=O)c2ccccc2N)C(=O)O[C@@H]1C was 0.5 µg/mL
